# test-method-notes: Hepatic metabolic stability (HMS) assay, mouse hepatocytes
# assay-conditions: mouse, cryopreserved hepatocytes
metric-name: half-life at 1 μM
The answer consists of two parts: a number and, after it, its unit.

IN: What does the data say about its half-life at 1 μM? Entry: CN(C(=O)c1ccc2nc(N)c3cncn3c2c1)[C@@H]1COc2cc(C(F)(F)F)ccc21
OUT: 1.86 h

* * *

# test-method-notes: Hepatic metabolic stability (HMS) assay, human hepatocytes
# assay-conditions: human, cryopreserved hepatocytes
metric-name: half-life at 3 μM
The answer consists of two parts: a number and, after it, its unit.

IN: What does the data say about its half-life at 3 μM? Entry: O=c1ccc2ccc(O)cc2o1 [Ref. 2, 7-Hydroxycoumarin, reference compound]
OUT: 3 min

* * *

# subject-of-test: PRMT5/MEP50 (Homo sapiens (Human))
# Sequence (O14744 whole entry): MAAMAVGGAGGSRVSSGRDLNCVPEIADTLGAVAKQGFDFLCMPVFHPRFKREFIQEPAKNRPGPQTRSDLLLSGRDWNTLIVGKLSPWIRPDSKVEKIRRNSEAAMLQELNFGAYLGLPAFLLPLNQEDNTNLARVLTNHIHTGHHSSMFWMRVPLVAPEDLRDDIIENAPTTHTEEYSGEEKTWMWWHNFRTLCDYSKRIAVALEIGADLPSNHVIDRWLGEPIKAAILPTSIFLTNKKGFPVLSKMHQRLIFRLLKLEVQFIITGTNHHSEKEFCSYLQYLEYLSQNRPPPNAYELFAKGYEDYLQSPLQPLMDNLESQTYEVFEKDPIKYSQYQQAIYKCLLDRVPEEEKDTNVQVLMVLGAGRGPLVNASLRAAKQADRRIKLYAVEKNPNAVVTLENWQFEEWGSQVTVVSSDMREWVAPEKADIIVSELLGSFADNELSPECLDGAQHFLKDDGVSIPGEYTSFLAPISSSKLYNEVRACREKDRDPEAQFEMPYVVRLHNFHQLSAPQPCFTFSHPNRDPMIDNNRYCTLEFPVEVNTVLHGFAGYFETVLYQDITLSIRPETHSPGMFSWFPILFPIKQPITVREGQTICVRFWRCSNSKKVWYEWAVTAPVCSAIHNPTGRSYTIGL
# Sequence (Q9BQA1 whole entry partner): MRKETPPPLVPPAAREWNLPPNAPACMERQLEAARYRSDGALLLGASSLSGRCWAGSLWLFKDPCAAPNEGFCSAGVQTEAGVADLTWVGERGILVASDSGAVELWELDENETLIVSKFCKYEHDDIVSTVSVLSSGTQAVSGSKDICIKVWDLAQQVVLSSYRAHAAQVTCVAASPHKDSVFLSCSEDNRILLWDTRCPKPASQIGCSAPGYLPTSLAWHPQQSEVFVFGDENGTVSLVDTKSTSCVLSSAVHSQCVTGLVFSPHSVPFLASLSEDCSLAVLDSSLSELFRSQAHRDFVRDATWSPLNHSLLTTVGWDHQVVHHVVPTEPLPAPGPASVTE
# test-method-notes: MTase-Glo methyl transferase assay (PRMT5 inhibition)
# assay-conditions: 50 nM PRMT5/MEP50, 25 μM SAM, 5 μM Histone H4 peptide (1-21), read-out: IC50 for PRMT5 inhibiting
metric-name: IC50 (nM)
Report as a plain number; the unit nM is understood.

Worked examples, 3 molecules total:
molecule	metric-name	unit-of-measurement	reading
CN(C(=O)c1ccc2nc(N)c3cncn3c2c1)C1COCc2cc(C(F)(F)F)ccc21 (stereo not shown)	IC50	nM	31
C[C@H](c1ncccn1)N(Cc1ccc(C(F)(F)F)cn1)C(=O)c1ccc2nc(N)c3cncn3c2c1	IC50	nM	24
CN(C(=O)c1ccc2nc(N)c3cncn3c2c1)C1COc2cc(C(F)(F)F)cnc21 (stereo not shown)	IC50	nM	89

IN: What does the data say about its IC50? Entry: CN(C(=O)c1cc2c(cn1)nc(N)c1cncn12)[C@@H]1CC(F)(F)c2cc(C(F)(F)F)ccc21
OUT: 34

* * *

# test-method-notes: in vitro
# assay-conditions: human, hepatocytes
metric-name: half-life at 3 μM (min)
Report as a plain number; the unit min is understood.

IN: What does the data say about its half-life at 3 μM? Entry: CCOc1ccc2ccc(=O)oc2c1 [Ref. 1, 7-Ethoxycoumarin]
OUT: 19.2

* * *

# Tested on: HCT116 homozygous MTAP knockout cells
# test-method-notes: HCT116 cell proliferation assay (CTG), MTAP knockout cells
# Format: cell-based, human
# assay-conditions: Homo sapiens, HCT-116, 6 days treatment, Cell Titer-Glo
Below, each entry is listed with its recorded pIC50.
Entry type: numeric. Quantity: pIC50, the -log10 of concentration in molar units.

Worked examples, 6 compounds total:
compound	subject-of-test	pIC50
CN(C(=O)c1ccc2nc(N)c3cncn3c2c1)C1COc2cc(C(F)(F)F)ncc21 (stereo not shown)	HCT116 homozygous MTAP knockout cells	6.54
[2H]C([2H])([2H])N(C(=O)c1cc2c(cn1)nc(N)c1cncn12)C1COc2c1ccc(C(F)(F)F)c2F (stereo not shown)	HCT116 homozygous MTAP knockout cells	6.44
C[C@H](c1ncccn1)N(Cc1ccc(C(F)(F)F)cn1)C(=O)c1ccc2nc(N)c3cncn3c2c1	HCT116 homozygous MTAP knockout cells	6.81
CN(C(=O)c1cnc2nc(N)c3cncn3c2c1)[C@@H]1COc2cc(C(F)(F)F)ccc21	HCT116 homozygous MTAP knockout cells	6.74
C[C@H](c1ncccn1)N(Cc1ccc(C(F)(F)F)cn1)C(=O)c1cc2c(cn1)nc(N)c1cncn12	HCT116 homozygous MTAP knockout cells	7.48
[2H]C([2H])([2H])N(C(=O)c1ccc2nc(N)c3cncn3c2c1)C1COc2cc(OC(F)F)ccc21 (stereo not shown)	HCT116 homozygous MTAP knockout cells	6.63

Let us move to another entry and its pIC50.
IN: What does the data say about its pIC50? Entry: CN(C(=O)c1ccc2nc(N)c3cncn3c2c1)C1COc2cc(C(F)(F)F)cnc21 (stereo not shown)
OUT: 5.40
